# System: Mycolicibacterium smegmatis
# measurement_notes: Antimycobacterial activity against Mycobacterium smegmatis by liquid microdilution method
# Assay type: functional
Below is a list of entries, each paired with its recorded MIC value.

// known answers, use as guide
CC[C@H](C)[C@@H](NC(=O)[C@@H](CCC(=O)O)NC(=O)[C@H](Cc1cnc[nH]1)NC(=O)[C@H](CC(C)C)NC(=O)[C@H](N)Cc1ccccc1)C(=O)N[C@@H](CCCCN)C(=O)O > 50 µg/mL
CC[C@H](C)[C@@H](NC(=O)[C@@H](CCC(=O)O)NC(=O)[C@H](Cc1cnc[nH]1)NC(=O)[C@@H](CC(C)C)NC(=O)[C@H](N)Cc1ccccc1)C(=O)N[C@H]1CCCCNC1=O > 50 µg/mL
CC[C@H](C)[C@@H](NC(=O)[C@@H](CCC(=O)O)NC(=O)[C@H](Cc1cnc[nH]1)NC(=O)[C@H](CC(C)C)NC(=O)[C@H](N)Cc1ccccc1)C(=O)N[C@@H]1CCCCNC1=O > 50 µg/mL
CC(C)C[C@H](NC(=O)[C@H](N)Cc1ccccc1)C(=O)N[C@@H](Cc1cnc[nH]1)C(=O)N[C@H](CCC(=O)O)C(=O)N[C@H](C)C(=O)N[C@H]1CCCCNC1=O > 50 µg/mL
CC[C@H](C)[C@@H](NC(=O)[C@@H](CCC(=O)O)NC(=O)[C@H](Cc1cnc[nH]1)NC(=O)[C@H](CC(C)C)NC(=O)[C@@H](N)Cc1ccccc1)C(=O)N[C@H]1CCCCNC1=O > 50 µg/mL

// query MIC value for entry CC[C@H](C)[C@@H](NC(=O)[C@H](CCC(=O)O)NC(=O)[C@H](Cc1cnc[nH]1)NC(=O)[C@H](CC(C)C)NC(=O)[C@H](N)Cc1ccccc1)C(=O)N[C@H]1CCCCNC1=O
> 50 µg/mL

// query MIC value for entry CC[C@H](C)[C@@H](NC(=O)[C@@H](CCC(=O)O)NC(=O)[C@H](Cc1cnc[nH]1)NC(=O)[C@H](C)NC(=O)[C@H](N)Cc1ccccc1)C(=O)N[C@H]1CCCCNC1=O
> 50 µg/mL

// query MIC value for entry CC[C@H](C)[C@@H](NC(=O)[C@@H](CCC(=O)O)NC(=O)[C@H](C)NC(=O)[C@H](CC(C)C)NC(=O)[C@H](N)Cc1ccccc1)C(=O)N[C@H]1CCCCNC1=O
> 50 µg/mL

// query MIC value for entry CC[C@H](C)[C@@H](NC(=O)[C@@H](CCC(=O)O)NC(=O)[C@H](Cc1cnc[nH]1)NC(=O)[C@@H](N)CC(C)C)C(=O)N[C@H]1CCCCNC1=O
> 50 µg/mL

// query MIC value for entry CC[C@H](C)[C@@H](NC(=O)[C@@H](CCC(=O)O)NC(=O)[C@H](Cc1cnc[nH]1)NC(=O)[C@H](CC(C)C)NC(=O)[C@H](N)Cc1ccccc1)C(=O)N[C@H]1CCCCNC1=O
0.78 µg/mL

// query MIC value for entry CC[C@H](C)[C@@H](NC(=O)[C@@H](C)NC(=O)[C@H](Cc1cnc[nH]1)NC(=O)[C@H](CC(C)C)NC(=O)[C@H](N)Cc1ccccc1)C(=O)N[C@H]1CCCCNC1=O
6.25 µg/mL

All figures here come from ChEMBL document CHEMBL2203052.
